- ASSAY_TEXT: yeast display, Sf9 membrane polyspecificity reagent, FACS + sequencing; frameworks hold sequencing errors
MEASUREMENT_TYPE: polyreactivity (PSR sort gate)

So what's the measured polyreactivity (PSR sort gate) for this one? QVQLVESGGGLVQAGGSLRLSCAPSGFTFSYNAMGWYRQAPGKERELVAAISNSGGSTYYADSVKGRFTISRDNAKYTVYLQMNSLKPEDTAVYYCAADVAQVGYQVGVSEIYPGYEYWGQGTQVTVSS
low polyreactivity

Request: QVQLVESGGGLVQAGGSLRLSCAASGRIYWNTMGWYRQAPGKERQLVASISTGGGRTYYADSVKGRFTISRDNAKNTVYLQMNSLKPEDTAVYYCAARRGAGYSRFNYWGQGTQVTVSS
high polyreactivity

Okay, and QVQLVESGGGLVQAGGSLRLSCAASGSTFRSYAMGWYRQAPWKERELVAAISSSGGSTYYADSVKGRFTISRDNANNTVYLQMNSLKPEDTAVYICAADFLYYEYDYWGQGTQVTVSS ?
low polyreactivity

// query: QVQLVESGGGLVQAGGSLRLSCAASGFTFGANDMGWYRQAPGKERELVATISSSGGTTYYADSVKGRFTISRDNAKNTVYLQMNSLKPEDTAVYYCAAKGLFTGRVSRYADDHCGQGTQVTVSS
low polyreactivity

Continuing:
Report polyreactivity (PSR sort gate) for QVQLVESGGGLVQAGGSLRLSCAASGRIFGYYAMGWYRQAPGKERELVAAIRYSSGRTYYADSVKGRFTISRDNAKNNVYLQMNSLKPEDTAVYYCNAGYLFLRSYPHDYWGQGTQVTVSS please.
high polyreactivity

Follow-up item: QVQLVESGGGLVQAGGSLRLSCAASGNIFYYYAMGWYRQAPGKERELVAAISWRGGITYYANSVKGRFTISRDNAKNTVYLQMNSLKPEDNAVYYCNAVQPGYPNGFAVRYNYWGQGTQVTVSS
low polyreactivity

What do you get for QVQLVESGGGLVQAGGSLRLSCAASGSIFYYNAMGWYRQAPGKERELVASISERGGITRYADSVKGRFTISRDNAKNTVYLQMNSLKREDTAVYYCNRSISLTFYAYAGYFLALDYWGQGTQVTVSS ?
low polyreactivity

How about QVQHVESGGGLVQAGGSLRLSCAASGSIFYQNAMGWYRQAPGKERELVAAISSAGSTYYADSVKGRFTISRDNAKNTVYLQMNSLKPEDTAVYYCARRSSGELGYHIYDYWGQGTQVTVSS ?
low polyreactivity

Another: QVQLVESGGGLVQAGGSLRLSCAASGSIFWYNAMGWYRQAPGKERELVAAISRSGSRTYYADSVKGRFTISRDNAKNTVYVQMTSLKPEATAVYYCARVRPRGLYFVLHYDYWGQGTQVTVSS
high polyreactivity
